biological target: Sodium channel alpha subunits; brain (Types I, II, III) (Rattus norvegicus, UniProt P04775+P04774+P08104); assay: Inhibition of [3H]batrachotoxin binding to rat brain sodium channel
Listed below: IC50 values for each entry.

Past entries and their recorded results:
compound_structure_string=C[C@H](NCc1ccc(OCCCCCc2ccccc2)cc1)C(N)=O value_reported="1.4 µM"
compound_structure_string=COc1ccc(CN[C@@H](C)C(N)=O)cc1 value_reported="145.8 µM"

Data point: `C[C@@H](NCc1ccc(OCCCc2ccccc2)cc1)C(N)=O` ; IC50 = 7.8 µM

Data point: `C[C@H](NCc1ccc(OCc2ccccc2)cc1)C(=O)O` ; IC50 = 150.8 µM

Data point: `Nc1nnc(-c2cccc(Cl)c2Cl)c(N)n1` ; IC50 = 185.9 µM

Data point: `C[C@H](NCc1ccc(OCCCCc2ccccc2)cc1)C(N)=O` ; IC50 = 1.1 µM

Data point: `CNC(=O)[C@H](CO)NCc1ccc(OCc2cccc(F)c2)cc1` ; IC50 = 26.3 µM

Data point: `C[C@H](NCc1ccc(NCc2cccc(F)c2)cc1)C(N)=O` ; IC50 = 13.9 µM

Data point: `COc1ccc2c(c1)[C@]13CCCC[C@@H]1[C@H](C2)N(C)CC3` ; IC50 = 1.3 µM

Data point: `CNC(=O)[C@@H](CO)NCc1ccc(OCc2cccc(F)c2)cc1` ; IC50 = 17.9 µM

* * *

assay: Lethal dose in rats; type: toxicity; conditions: rat, in vivo
metric: LD50

Data point: `COc1ccc2c(c1)[C@]13CCCC[C@@H]1[C@H](C2)N(C)CC3` ; LD50 = 234 mg/kg

* * *

test: Protective index (PI) is the ratio of TD50 in the rotarod test over the ED50 in the anticonvulsant test.; assay type: functional
Listed below: PI values for each entry.

Past entries and their recorded results:
molecule="CS(=O)(=O)O.C[C@H](NCc1ccc(OCc2cccc(F)c2)cc1)C(N)=O [SAFINAMIDE MESYLATE]" value_reported=78.2
molecule=C[C@@H](NCc1ccc(OCCCc2ccccc2)cc1)C(N)=O value_reported=102
molecule=CNC(=O)[C@H](CO)NCc1ccc(OCc2cccc(F)c2)cc1 value_reported=70.4
molecule=C[C@H](NCc1ccc(OCCCCc2ccccc2)cc1)C(N)=O value_reported=81
molecule=C[C@@H](NCc1ccc(NCc2cccc(F)c2)cc1)C(N)=O value_reported=160

Data point: `C[C@H](NCc1ccc(NCc2cccc(F)c2)cc1)C(N)=O` ; PI = 88.3

Data point: `C[C@H](NCc1ccc(OCCCCCc2ccccc2)cc1)C(N)=O` ; PI = 80.8

Data point: `CNC(=O)[C@@H](CO)NCc1ccc(OCc2cccc(F)c2)cc1` ; PI = 92.6

Data point: `C[C@H](NCc1ccc(OCCCc2ccccc2)cc1)C(N)=O` ; PI = 87.2

Data point: Nc1nnc(-c2cccc(Cl)c2Cl)c(N)n1 [LAMOTRIGINE] ; PI = 38.2

Data point: `C[C@@H](NCc1ccc(OCc2cccc(F)c2)cc1)C(N)=O` ; PI = 87.8

* * *

Listed below: ED50 values for each entry.
tested on: Rattus norvegicus; experiment: Tested for the anticonvulsant activity administered 60 min orally before MES induction; assay type: functional; settings: po, 1 h

compound_structure_string=C[C@H](NCc1ccc(OCc2ccccc2)cc1)C(=O)O value_reported="> 100 mg/kg"
compound_structure_string=CNC(=O)[C@@H](CO)NCc1ccc(OCc2cccc(F)c2)cc1 value_reported="6.4 mg/kg"
compound_structure_string=C[C@H](NCc1ccc(OCCCc2ccccc2)cc1)C(N)=O value_reported="6.7 mg/kg"

// moving on: another record for ED50
Data point: `C[C@@H](NCc1ccc(NCc2cccc(F)c2)cc1)C(N)=O` ; ED50 = 1.7 mg/kg

Every entry's value here was drawn from ChEMBL document CHEMBL1132100.
